- assay system: Na, K-ATPase (Ovis aries, UniProt P04074)
- Construct: Na, K-ATPase will be purified from the outer medulla of frozen lamb kidney; from tissue; host or cells: outer medulla of frozen lamb kidney
- assay name: NKA assay started by addition of KCl
- Assay type: biochemical, lamb
- condition summary: assay started by addition of KCl; average; read-out: IC50_aver.
measure: IC50 (µM)

>>> df
                                   compound  reported_value
0  COc1cc2c(c(OC)c1)Sc1ccccc1C(=O)C2 [Compound 28]            67.6

====

- assay system: Na, K-ATPase (Ovis aries)
- Construct: Na, K-ATPase will be purified from the outer medulla of frozen lamb kidney; from tissue; host or cells: outer medulla of frozen lamb kidney
- assay name: NKA assay started by addition of KCl
- Assay type: biochemical, lamb
- condition summary: assay started by addition of KCl; determination 2; read-out: IC50_2
measure: IC50 (µM)

                          mol_smiles  measure  unit_string  reported_value
0  COc1cc2c(c(OC)c1)Sc1ccccc1C(=O)C2     IC50           µM            59.7

====

Listing of recorded pIC50 by entry.
- assay system: Na, K-ATPase (Ovis aries, UniProt P04074)
- Construct: Na, K-ATPase will be purified from the outer medulla of frozen lamb kidney; from tissue; host or cells: outer medulla of frozen lamb kidney
- assay name: NKA assay started by addition of ATP
- Type: biochemical, lamb
- condition summary: assay started by addition of ATP; determination 3; read-out: IC50_3
pIC50: −log10 of the molar value.

compound	pIC50
COc1cccc2c1Sc1ccccc1C(=O)C2 [Compound 27]	3.92
Cc1cc(O)c2c(c1)C(=O)c1cc(O)cc(O)c1C2=O [Compound 15, Emodin]	3.79
O=C1C=CC2C(=C1[N+](=O)[O-])Oc1c(ccc(O)c1[N+](=O)[O-])C2c1ccccc1C(=O)O (stereo not shown) [Compound 14, 4′-5′ Di nitroflorescein]	4.93
COc1cc2c(c(OC)c1)Sc1ccccc1C(=O)C2 [Compound 28]	4.44

====

- assay system: Na, K-ATPase (Ovis aries, UniProt P04074)
- Construct: Na, K-ATPase will be purified from the outer medulla of frozen lamb kidney; from tissue; host or cells: outer medulla of frozen lamb kidney
- assay name: NKA assay started by addition of ATP
- Type: biochemical, lamb
- condition summary: assay started by addition of ATP; determination 1; read-out: IC50_1
pIC50: −log10 of the molar value.
Threshold check on pIC50: at or above 4 gives 1, strictly below gives -1.

                                   compound  group
0               COc1cccc2c1Sc1ccccc1C(=O)C2     -1
1    Cc1cc(O)c2c(c1)C(=O)c1cc(O)cc(O)c1C2=O      1
2  O=C1C=CC2C(=C1[N+](=O)[O-])Oc1c(ccc(O)c1[N+](=O)[O-])C2c1ccccc1C(=O)O (centres unmarked)      1
3  Oc1cc(O)c2c(c1)O[C@H](c1ccc(O)c(O)c1)[C@@H](O)C2 [Compound 9, (+)-Catechin Hydrate]     -1
4  CC(CCc1ccc(O)cc1)NCCc1ccc(O)c(O)c1 (centres unmarked)      1
